# Tested on: HCC38 cells
# measurement-description: Resazurin-based cell viability assay, monotherapy drug screen
# Design: species or system human
# condition-label: Homo sapiens, HCC38, 24 h, read-out: GR50 (µM)
Residues, ends and D or L forms follow the SMILES beside them. *: point of attachment. Cbz = O=C(OCc1ccccc1)*
observed-property: IC50 (µM)
// units = µM; emit number, no label

- CC(C)C[C@@H](C=O)NC(=O)[C@H](CC(C)C)NC(=O)[C@H](CC(C)C)NC(=O)OCc1ccccc1 [MG 132, MG-132] (Cbz-Leu-Leu-Leu-aldehyde): 0.37

Item CC1=C(O)C(=O)C=C2C1=CC=C1[C@@]2(C)CC[C@@]2(C)[C@@H]3C[C@](C)(C(=O)O)CC[C@]3(C)CC[C@]12C [Celastrol] : provide IC50
1.2

* * *

Here the recorded log10 of IC50 is given for each entry.
# System: HCC38 cells
# measurement-description: Resazurin-based cell viability assay, monotherapy drug screen
# Set-up: species or system human
# condition-label: Homo sapiens; HCC38; 24 h drug treatment; read-out: IC50
Form field - Quantity: IC50; Unit: µM; Scale: log10

Item `COc1cccc2c1C(=O)c1c(O)c3c(c(O)c1C2=O)C[C@@](O)(C(=O)CO)C[C@@H]3O[C@H]1C[C@H](N)[C@H](O)[C@H](C)O1` : provide log10 of IC50
0.46

Item `CC(C)C[C@H](NC(=O)[C@@H](NC(=O)c1cccc(-c2ccccc2)n1)[C@@H](C)O)B(O)O` : provide log10 of IC50
-1.92

Item `CC(C)C[C@H](NC(=O)[C@H](CCc1ccccc1)NC(=O)CN1CCOCC1)C(=O)N[C@@H](Cc1ccccc1)C(=O)N[C@@H](CC(C)C)C(=O)[C@@]1(C)CO1` : provide log10 of IC50
-0.24

Item `CC(=O)O[C@H]1C(=O)[C@@]2(C)[C@H]([C@H](OC(=O)c3ccccc3)[C@]3(O)C[C@H](OC(=O)[C@H](O)[C@@H](NC(=O)c4ccccc4)c4ccccc4)C(C)=C1C3(C)C)[C@]1(OC(C)=O)CO[C@@H]1C[C@@H]2O` : provide log10 of IC50
0.85

Item `CC(C)C[C@H](NC(=O)[C@H](Cc1ccccc1)NC(=O)c1cnccn1)B(O)O` : provide log10 of IC50
-1.62

* * *

Here the recorded IC50 is given for each entry.
# System: MDA-MB-453 cells
# measurement-description: Resazurin-based cell viability assay, monotherapy drug screen
# Parameters: species or system human
# condition-label: MDA-MB-453; growth rate inhibition concentration at GR(c) = 0.5, 24 h; read-out: GR50 (the source's name)
// units = nM; emit number, no label

Guide cases for IC50, answers given:
• [NH2][Pt]1([NH2])[O]CC(=O)[O]1 = 410
• CC[C@H](C)[C@H](NC(=O)[C@H]([C@@H](C)CC)N(C)C(C)=O)C(=O)N[C@H](C(=O)N[C@@H](CC(C)C)C(=O)[C@@]1(C)CO1)[C@@H](C)O = 15

Then there is this molecule:
Item N.N.[Cl][Pt][Cl] [Cisplatin] : provide IC50
95

* * *

# Tested on: CAL-148 cells
# measurement-description: Resazurin-based cell viability assay, monotherapy drug screen
# Design: species or system human
# condition-label: Homo sapiens, CAL-148, 24 h
observed-property: IC50 (µM)
// units = µM; emit number, no label

Item `CC1=C(O)C(=O)C=C2C1=CC=C1[C@@]2(C)CC[C@@]2(C)[C@@H]3C[C@](C)(C(=O)O)CC[C@]3(C)CC[C@]12C` : provide IC50
3.7
